target: Luciferin 4-monooxygenase (Photinus pyralis); test: qHTS assay to identify small molecule inhibitors of firefly luciferase (AID 1224835); note: nearly all actives have a fitted effect of over 25% in size; settings: purified P. pyralis luciferase, luminescence inhibition; series mostly up to 115 µM
Records with an inconclusive call do not appear. Activity calls are given as the source filed them. Calls come from the whole dose curve; as a rule, active = well fitted inhibition curve with a large enough effect in the repeat runs; inconclusive = weak or mixed curves; inactive = flat fitted curve, though single readings scatter.
assay-endpoint: outcome

compound	outcome
O=C(CS)OCCOC(=O)CS	inactive
CCC(C)=O	inactive
CCc1nn(CCCN2CCN(c3cccc(Cl)c3)CC2)c(=O)n1CCOc1ccccc1	inactive
CCC(=O)Oc1ccc(/C(CC)=C(\CC)c2ccc(OC(=O)CC)cc2)cc1	inactive

So what does the record say about outcome for CCC1(C)CC(=O)NC1=O (stereo unspecified) ?
inactive

So what does the record say about outcome for O=C(Nc1ccc([N+](=O)[O-])cc1)Nc1ccc([N+](=O)[O-])cc1 ?
inactive

So what does the record say about outcome for OC(CCCN1CCCCC1)(c1ccccc1)c1ccccc1 ?
inactive

So what does the record say about outcome for CC(=O)OCC(=O)[C@@]12OC(C)(C)O[C@@H]1C[C@H]1[C@@H]3C[C@H](F)C4=CC(=O)C=C[C@]4(C)[C@@]3(F)[C@@H](O)C[C@@]12C ?
inactive

So what does the record say about outcome for COCCOC(=O)C1=C(C)NC(C)=C(C(=O)OC/C=C/c2ccccc2)C1c1cccc([N+](=O)[O-])c1 (stereo unspecified) ?
inactive

So what does the record say about outcome for CC(C)CCCCCCOC(=O)CCCCC(=O)OCCCCCCC(C)C ?
inactive

So what does the record say about outcome for CC1(C)O[C@@H]2C[C@H]3[C@@H]4CCC5=CC(=O)C=C[C@]5(C)[C@H]4[C@@H](O)C[C@]3(C)[C@]2(C(=O)CO)O1 ?
inactive
